A collection of compounds and their measured GI50
Test system: KM12
Experiment: NCI tumour cell line growth inhibition, 48 h
Active and inactive are the calls of the source. No stated cut-off is given here; in the data, active = GI50 up to about 1.1 µM and inactive = higher.

{"compound": "N#CC(NNC(=O)Cc1ccccc1)c1ccc([N+](=O)[O-])cc1 (stereo not given)", "GI50": "> 100 µM (inactive)"}
{"compound": "O=C(Nc1ccccc1F)c1cc2ccc(O)cc2o/c1=N\\c1cccc(C(F)(F)F)c1", "GI50": "3.71 µM (inactive)"}
{"compound": "CCOC(=O)/C=C(/OCC)[C@@H]1C(C(=O)c2ccc(Cl)cc2)[C@H]1/C(=C\\C(=O)OCC)OCC (stereo not given in full)", "GI50": "56.9 µM (inactive)"}
{"compound": "C[C@@]1(O)C[C@@H](N2C(=O)O[C@@H](c3ccccc3)[C@H]2c2ccccc2)[C@@H]1COCc1ccccc1", "GI50": "19.6 µM (inactive)"}

Okay, next one:
The recorded GI50 for entry `COc1ccc2[nH]c(CCNC(=O)c3cc([N+](=O)[O-])cc([N+](=O)[O-])c3)cc2c1` equals > 100 µM (inactive)

----------
Tested on: SF-539
Test: NCI tumour cell line growth inhibition, 48 h
Structures can show the parent of a compound that is named as a salt. Calls of active or inactive are those of the source. Cut-off read from the data, not from the text of the source: active = GI50 up to about 1.1 µM and inactive = higher.
// classify into class 1 for active, class 0 for inactive

Worked examples, 10 molecules total:
{"molecule": "COc1ccc2c3c([nH]c2c1[N+](=O)[O-])C(C)=NCC3", "answer.label": "class 0"}
{"molecule": "O=C(NC12CC3CC(CC(C3)C1)C2)n1cnc2cncnc21", "answer.label": "class 0"}
{"molecule": "Cc1cccc2c(=O)cc(-c3ccccc3)[nH]c12", "answer.label": "class 0"}
{"molecule": "CCC/C(=N/NC(=O)C(N)=O)C(CC)C(=O)CCC(=O)N(Cc1ccccc1)Cc1ccccc1 (stereo not given)", "answer.label": "class 0"}
{"molecule": "CC1=NN(c2cccc(Cl)c2)C2(C1=Cc1ccc(N(C)C)cc1)C(Cl)C(=O)N2c1nc2ccccc2s1 (stereo not given)", "answer.label": "class 0"}
{"molecule": "COC1(OC)N=C(N)C2(C#N)C3(C(=O)N(C(C)C)N=C3C)C12C#N (stereo not given)", "answer.label": "class 0"}
{"molecule": "NC(=O)NC1C(C(N)=O)N(Cc2ccccc2)C(=O)N1Cc1ccccc1 (stereo not given)", "answer.label": "class 0"}
{"molecule": "COc1ccc(N2C(=O)C3c4[nH]c5ccc(OCc6ccccc6)cc5c4C4CCC(c5ccccc5)CC4C3C2=O)cc1 (stereo not given)", "answer.label": "class 0"}
{"molecule": "CC1=C(C(=O)Nc2cccc(Cl)c2)C(c2ccccc2O)C(C(=O)Nc2cccc(Cl)c2)=C(C)N1", "answer.label": "class 0"}
{"molecule": "Cc1nn(C(=O)c2ccc(Cl)cc2)c2c1C(c1ccco1)SC(=N)N2 (stereo not given)", "answer.label": "class 0"}

Prompt line: Short answer needed: outcome of this test for NCCc1cc(O)c(O)cc1O [OXIDOPAMINE HYDROCHLORIDE] ?
Response line: class 0

Prompt line: // outcome(item) with item = `Cc1cc(N(CCOS(C)(=O)=O)CCOS(C)(=O)=O)ccc1C=O`
Response line: class 1

Prompt line: Could you check what this test reported for COc1ccc(-c2c3c(n(C4OC(CO)C(O)C(O)C4O)c(=S)c2C#N)CC(C)(C)CC3=O)cc1 (stereo not given) ?
Response line: class 0

Prompt line: Hello, I am checking results. What call was entered for `C/N=c1/oc2ccccc2cc1C(N)=O` ?
Response line: class 0

Prompt line: Could you kindly confirm the outcome this assay logged for `BrCCCCCOc1ccc(-c2c3ccccc3c(-c3ccc(OCCCCCBr)cc3)c3ccccc23)cc1` ?
Response line: class 0

Prompt line: What did the test return for CCCCCCCCCCCCCCCCCCNc1ccn(C2OC(COP(=O)(O)OCC3CCC(n4cnc5c(=O)[nH]cnc54)O3)C(O)C2O)c(=O)n1 (stereo not given) ?
Response line: class 0

Prompt line: For CNc1ncnc2c1cnn2COCC(O)CO (stereo not given) , which call appears in the assay record?
Response line: class 0

Prompt line: Hi team, can someone confirm the assay call for Nc1nc(Cl)cc(NCC2(CO)CC(OCc3ccccc3)C2)n1 (stereo not given) ?
Response line: class 0

Prompt line: Answer briefly: the call reported for COc1cc2c(c(OC)c1OC)-c1c(cc3c(c1OC)OCO3)CC(C)C(C)(O)C2OC(=O)c1ccccc1 (stereo not given) in this assay.
Response line: class 0

Prompt line: Which outcome was entered for the molecule `CC(=O)C1(c2ccccc2)CCN(Cn2sc3nc(C)cc(C)c3c2=O)CC1` in this test?
Response line: class 0
